- TESTED_TARGET: Trypsin (Sus scrofa)
- Construct: purchased Promega Corporation V511
- ASSAY_PROTOCOL: Trypsin cleavage of N-terminal quantification tag Ac-nitroTyr-SGK- from peptides, LC-MS with UV detection at 350 nm
- Assay type: biochemical
- STUDY_CONDITIONS: trypsin
Square brackets hold non-standard residues; d marks the D form. Peptide text beside a SMILES is read from it. Tyr(3-NO2) = N[C@@H](Cc1ccc(O)c([N+](=O)[O-])c1)C(=O)O
PROPERTY: cleavage efficiency in words

[
  {
    "COMPOUND": "CC[C@H](C)[C@H](NC(=O)[C@H](Cc1ccccc1)NC(=O)[C@H](Cc1ccc(O)cc1)NC(=O)[C@H](Cc1c[nH]cn1)NC(=O)[C@@H](NC(=O)[C@H](CC(=O)O)NC(=O)[C@H](CCCCN)NC(=O)CNC(=O)[C@H](CO)NC(=O)[C@H](Cc1ccc(O)c([N+](=O)[O-])c1)NC(C)=O)[C@@H](C)O)C(=O)N[C@@H](CC(=O)O)C(=O)N[C@@H](CC(C)C)C(=O)N[C@@H](CC(N)=O)C(=O)N[C@@H](CCCCN)C(=O)O [Peptide 3, Ac-nitroTyr-SGKDTHYFIDLN-K-OH] (Ac-[Tyr(3-NO2)]SGKDTHYFIDLNK-OH)",
    "PROPERTY": "cleavage efficiency in words",
    "RECORDED_MEASUREMENT": "not efficiently cleaved"
  },
  {
    "COMPOUND": "CC(=O)N[C@@H](Cc1ccc(O)c([N+](=O)[O-])c1)C(=O)N[C@@H](CO)C(=O)NCC(=O)N[C@@H](CCCCN)C(=O)N[C@@H](CC(=O)O)C(=O)N[C@H](C(=O)N[C@@H](C)C(=O)N[C@@H](CC(C)C)C(=O)N[C@@H](CO)C(=O)N[C@@H](CC(C)C)C(=O)N[C@@H](CC(=O)O)C(=O)N[C@@H](CC(=O)O)C(=O)N[C@H](C(=O)N[C@@H](CCCCN)C(=O)O)C(C)C)C(C)C [Peptide 23, Ac-nitroTyr-SGKDVALSLDDV-K-OH] (Ac-[Tyr(3-NO2)]SGKDVALSLDDVK-OH)",
    "PROPERTY": "cleavage efficiency in words",
    "RECORDED_MEASUREMENT": "not efficiently cleaved"
  },
  {
    "COMPOUND": "CC[C@H](C)[C@H](NC(=O)[C@H](Cc1ccccc1)NC(=O)[C@H](Cc1ccc(O)cc1)NC(=O)[C@H](Cc1c[nH]cn1)NC(=O)[C@@H](NC(=O)[C@@H]1CCCN1C(=O)[C@H](CCCCN)NC(=O)CNC(=O)[C@H](CO)NC(=O)[C@H](Cc1ccc(O)c([N+](=O)[O-])c1)NC(C)=O)[C@@H](C)O)C(=O)N[C@@H](CC(=O)O)C(=O)N[C@@H](CC(C)C)C(=O)N[C@@H](CC(N)=O)C(=O)N[C@@H](CCCCN)C(=O)O [Peptide 13, Ac-nitroTyr-SGKPTHYFIDLN-K-OH] (Ac-[Tyr(3-NO2)]SGKPTHYFIDLNK-OH)",
    "PROPERTY": "cleavage efficiency in words",
    "RECORDED_MEASUREMENT": "not efficiently cleaved"
  }
]

====

- TESTED_TARGET: Trypsin (Sus scrofa, UniProt P00761)
- Construct: purchased Promega Corporation V511
- Sequence (P00761 9-231): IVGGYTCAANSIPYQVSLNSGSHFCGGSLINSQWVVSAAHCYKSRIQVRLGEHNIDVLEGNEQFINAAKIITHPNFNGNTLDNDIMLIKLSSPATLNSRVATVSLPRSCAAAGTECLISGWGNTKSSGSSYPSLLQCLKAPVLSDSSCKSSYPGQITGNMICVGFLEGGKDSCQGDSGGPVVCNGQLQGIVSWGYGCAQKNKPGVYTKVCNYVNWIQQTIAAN
- ASSAY_PROTOCOL: Trypsin cleavage of N-terminal quantification tag Ac-nitroTyr-SGK- from peptides, LC-MS with UV detection at 350 nm
- Format: biochemical
- STUDY_CONDITIONS: trypsin protocol of example 9, 24 h, RT
Square brackets hold non-standard residues; d marks the D form. Peptide text beside a SMILES is read from it. Tyr(3-NO2) = N[C@@H](Cc1ccc(O)c([N+](=O)[O-])c1)C(=O)O
PROPERTY: Kusebauch 24 h, RT: Percent Cleavage of Tag [by UV350 - Peptide-Tag vs. Tag] (%)

[
  {
    "COMPOUND": "CC(=O)N[C@@H](Cc1ccc(O)c([N+](=O)[O-])c1)C(=O)N[C@@H](CO)C(=O)NCC(=O)N[C@@H](CCCCN)C(=O)N[C@@H](CO)C(=O)N[C@H](C(=O)N[C@@H](C)C(=O)N[C@@H](CC(C)C)C(=O)N[C@@H](CO)C(=O)N[C@@H](CC(C)C)C(=O)N[C@@H](CC(=O)O)C(=O)N[C@@H](CC(=O)O)C(=O)N[C@H](C(=O)N[C@@H](CCCCN)C(=O)O)C(C)C)C(C)C [Peptide 36, Ac-nitroTyr-SGKSVALSLDDV-K-OH] (Ac-[Tyr(3-NO2)]SGKSVALSLDDVK-OH)",
    "UNIT_TEXT": "%",
    "RECORDED_MEASUREMENT": 100.0
  },
  {
    "COMPOUND": "CC[C@H](C)[C@H](NC(=O)[C@H](Cc1ccccc1)NC(=O)[C@H](Cc1ccc(O)cc1)NC(=O)[C@H](Cc1c[nH]cn1)NC(=O)[C@@H](NC(=O)[C@H](CCC(=O)O)NC(=O)[C@H](CCCCN)NC(=O)CNC(=O)[C@H](CO)NC(=O)[C@H](Cc1ccc(O)c([N+](=O)[O-])c1)NC(C)=O)[C@@H](C)O)C(=O)N[C@@H](CC(=O)O)C(=O)N[C@@H](CC(C)C)C(=O)N[C@@H](CC(N)=O)C(=O)N[C@@H](CCCCN)C(=O)O [Peptide 4, Ac-nitroTyr-SGKETHYFIDLN-K-OH] (Ac-[Tyr(3-NO2)]SGKETHYFIDLNK-OH)",
    "UNIT_TEXT": "%",
    "RECORDED_MEASUREMENT": 100.0
  },
  {
    "COMPOUND": "CC[C@H](C)[C@H](NC(=O)[C@H](Cc1ccccc1)NC(=O)[C@H](Cc1ccc(O)cc1)NC(=O)[C@H](Cc1c[nH]cn1)NC(=O)[C@@H](NC(=O)[C@H](CC(N)=O)NC(=O)[C@H](CCCCN)NC(=O)CNC(=O)[C@H](CO)NC(=O)[C@H](Cc1ccc(O)c([N+](=O)[O-])c1)NC(C)=O)[C@@H](C)O)C(=O)N[C@@H](CC(=O)O)C(=O)N[C@@H](CC(C)C)C(=O)N[C@@H](CC(N)=O)C(=O)N[C@@H](CCCCN)C(=O)O [Peptide 12, Ac-nitroTyr-SGKNTHYFIDLN-K-OH] (Ac-[Tyr(3-NO2)]SGKNTHYFIDLNK-OH)",
    "UNIT_TEXT": "%",
    "RECORDED_MEASUREMENT": 100.0
  },
  {
    "COMPOUND": "CC[C@H](C)[C@H](NC(=O)[C@H](Cc1ccccc1)NC(=O)[C@H](Cc1ccc(O)cc1)NC(=O)[C@H](Cc1c[nH]cn1)NC(=O)[C@@H](NC(=O)[C@H](CC(=O)O)NC(=O)[C@H](CCCCN)NC(=O)CNC(=O)[C@H](CO)NC(=O)[C@H](Cc1ccc(O)c([N+](=O)[O-])c1)NC(C)=O)[C@@H](C)O)C(=O)N[C@@H](CC(=O)O)C(=O)N[C@@H](CC(C)C)C(=O)N[C@@H](CC(N)=O)C(=O)N[C@@H](CCCCN)C(=O)O [Peptide 3, Ac-nitroTyr-SGKDTHYFIDLN-K-OH] (Ac-[Tyr(3-NO2)]SGKDTHYFIDLNK-OH)",
    "UNIT_TEXT": "%",
    "RECORDED_MEASUREMENT": 60.2
  }
]

====

- TESTED_TARGET: Trypsin (Sus scrofa, UniProt P00761)
- Construct: purchased Promega Corporation V511
- ASSAY_PROTOCOL: Trypsin cleavage of C-terminal quantification tag -SA-nitroTyr-G from peptides, LC-MS with UV detection at 350 nm
- Assay type: biochemical
- STUDY_CONDITIONS: after reduction and alkylation, trypsin enzyme/substrate 1:50 over night at RT
Square brackets hold non-standard residues; d marks the D form. Peptide text beside a SMILES is read from it. Tyr(3-NO2) = N[C@@H](Cc1ccc(O)c([N+](=O)[O-])c1)C(=O)O
PROPERTY: Percent Cleavage of Tag [by UV at 350 nm]

[
  {
    "COMPOUND": "CC[C@H](C)[C@H](NC(=O)[C@H](Cc1ccccc1)NC(=O)[C@H](Cc1ccc(O)cc1)NC(=O)[C@H](Cc1c[nH]cn1)NC(=O)[C@@H](NC(=O)[C@H](CO)NC(=O)[C@H](CCCCN)NC(=O)CNC(=O)[C@H](CO)NC(=O)[C@H](Cc1ccc(O)c([N+](=O)[O-])c1)NC(C)=O)[C@@H](C)O)C(=O)N[C@@H](CC(=O)O)C(=O)N[C@@H](CC(C)C)C(=O)N[C@@H](CC(N)=O)C(=O)N[C@@H](CCCCN)C(=O)O [Peptide 16, Ac-nitroTyr-SGKSTHYFIDLN-K-OH] (Ac-[Tyr(3-NO2)]SGKSTHYFIDLNK-OH)",
    "RECORDED_MEASUREMENT": "100%"
  }
]

Recorded values, source patent US20160223562A1.
